Reference for the values: patent US20260224536A1

Target: Kv1.3 potassium channel (Homo sapiens)
Sequence (P22001 whole entry): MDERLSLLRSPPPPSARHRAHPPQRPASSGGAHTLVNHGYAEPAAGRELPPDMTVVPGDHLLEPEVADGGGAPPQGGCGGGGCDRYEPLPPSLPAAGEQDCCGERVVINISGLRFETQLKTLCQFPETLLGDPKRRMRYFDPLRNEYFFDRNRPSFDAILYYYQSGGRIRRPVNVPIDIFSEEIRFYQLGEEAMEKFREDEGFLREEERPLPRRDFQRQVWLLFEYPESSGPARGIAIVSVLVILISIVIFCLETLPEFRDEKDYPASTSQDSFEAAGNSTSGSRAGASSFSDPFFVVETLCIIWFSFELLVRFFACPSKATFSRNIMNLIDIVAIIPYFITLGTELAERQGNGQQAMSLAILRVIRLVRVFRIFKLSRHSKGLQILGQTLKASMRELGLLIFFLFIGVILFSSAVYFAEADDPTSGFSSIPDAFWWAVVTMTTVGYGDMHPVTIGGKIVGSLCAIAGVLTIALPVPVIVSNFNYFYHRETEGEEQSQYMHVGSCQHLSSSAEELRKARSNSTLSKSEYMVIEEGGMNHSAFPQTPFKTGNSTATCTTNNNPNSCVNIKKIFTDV
Assay: Whole-cell patch-clamp assay for inhibitory activity against Kv1.3 (peak current)
Conditions: HEK293 cells stably expressing Kv1.3, patch-clamp

molecule: OCc1nnc2n1C[C@@H](c1c(O)ccc(Cl)c1Cl)C2 [Example 1]
unit-symbol: µM
IC50: 0.0943
//
molecule: Oc1ccc(Cl)c(Cl)c1[C@@H]1Cc2nnc(C3CCCOC3)n2C1 (single isomer, unassigned) [Example 69]
unit-symbol: µM
IC50: 0.053
//
molecule: Oc1ccc(Cl)c(Cl)c1C1Cc2nnc(-c3ccc4[nH]ncc4c3)n2C1 (centres unmarked) [Example 7]
unit-symbol: µM
IC50: 0.012
//
molecule: Nc1cc(-c2nnc3n2C[C@H](c2c(O)ccc(Cl)c2Cl)C3)ccn1 [Example 43]
unit-symbol: µM
IC50: 0.0197
//
molecule: CC(C)N1CCC(Oc2nnc3n2CC(c2c(O)ccc(Cl)c2Cl)C3)CC1 (centres unmarked) [Example 102]
unit-symbol: µM
IC50: 0.00699
//
molecule: Oc1ccc(Cl)c(Cl)c1[C@@H]1Cc2nnc(C3CCN(C4CCCCC4)CC3)n2C1 [Example 78]
unit-symbol: µM
IC50: 0.0126
//
molecule: Oc1ccc(Cl)c(Cl)c1[C@@H]1Cc2nnc([C@H]3C[C@@H]4CC[C@H]3O4)n2C1 [Example 62]
unit-symbol: µM
IC50: 0.0164
//
molecule: COc1ccc(-c2cnc3n2CC(c2c(O)ccc(Cl)c2Cl)C3)cc1 (centres unmarked) [Example 96]
unit-symbol: µM
IC50: 0.0516
//
molecule: CCn1ncc2c1C[C@@H](c1c(O)ccc(Cl)c1Cl)C2 [Example 117]
unit-symbol: µM
IC50: 0.065
//
molecule: COC(=O)N1CC[C@@H](c2nnc3n2C[C@H](c2c(O)ccc(Cl)c2Cl)C3)C1 [Example 51]
unit-symbol: µM
IC50: 0.00724
//
molecule: CN1CCC(c2nnc3n2C[C@H](c2c(O)ccc(Cl)c2Cl)C3)C1 (some centres unmarked) [Example 49]
unit-symbol: µM
IC50: 0.00364
//
molecule: Oc1ccc(Cl)c(Cl)c1[C@@H]1Cc2nnc(C34COC(C3)C4)n2C1 [Example 66]
unit-symbol: µM
IC50: 0.0333
//
molecule: O=c1n(C2CCOCC2)nc2n1C[C@H](c1c(O)ccc(Cl)c1Cl)C2 [Example 108]
unit-symbol: µM
IC50: 0.0278
//
molecule: N#Cc1cccc(-c2nnc3n2CC(c2c(O)ccc(Cl)c2Cl)C3)c1 (centres unmarked) [Example 9]
unit-symbol: µM
IC50: 0.0171
//
molecule: O=C1C[C@@H](c2nnc3n2C[C@H](c2c(O)ccc(Cl)c2Cl)C3)CN1 [Example 52]
unit-symbol: µM
IC50: 0.014
//
molecule: CC(C)(C#N)c1nnc2n1CC(c1c(O)ccc(Cl)c1Cl)C2 (centres unmarked) [Example 4]
unit-symbol: µM
IC50: 0.0452
//
molecule: O=c1n([C@H]2CCOC2)nc2n1C[C@H](c1c(O)ccc(Cl)c1Cl)C2 [Example 109]
unit-symbol: µM
IC50: 0.0317
//
molecule: Cn1cc(-c2nnc3n2C[C@H](c2c(O)ccc(Cl)c2Cl)C3)ccc1=O [Example 38]
unit-symbol: µM
IC50: 0.0431
//
molecule: O=C(c1nnc2n1CC(c1c(O)ccc(Cl)c1Cl)C2)N1CCNCC1 (centres unmarked) [Example 13]
unit-symbol: µM
IC50: 0.00509
//
molecule: Oc1ccc(Cl)c(Cl)c1[C@@H]1Cc2nnc(C3CNC3)n2C1 [Example 45]
unit-symbol: µM
IC50: 0.0015
//
molecule: Oc1ccc(Br)c(Br)c1C1Cc2nnc([C@@H]3CCOC3)n2C1 (some centres unmarked) [Example 119]
unit-symbol: µM
IC50: 0.00654
//
molecule: N#Cc1ccc(-c2nnc3n2CC(c2c(O)ccc(Cl)c2Cl)C3)cc1 (centres unmarked) [Example 6]
unit-symbol: µM
IC50: 0.0132
//
molecule: Oc1ccc(Cl)c(Cl)c1[C@@H]1Cc2nnc(C3CCNCC3)n2C1 [Example 35]
unit-symbol: µM
IC50: 0.00315
//
molecule: Nc1ccc(-c2nnc3n2C[C@H](c2c(O)ccc(Cl)c2Cl)C3)cn1 [Example 42]
unit-symbol: µM
IC50: 0.013
//
molecule: CCn1cc2c(n1)CC(c1c(O)ccc(Cl)c1Cl)C2 (centres unmarked) [Example 112]
unit-symbol: µM
IC50: 0.0431
//
molecule: Oc1ccc(Cl)c(Cl)c1C1Cc2nnc(C3CCCCC3)n2C1 (centres unmarked) [Example 5]
unit-symbol: µM
IC50: 0.039
//
molecule: Oc1ccc(Cl)c(Cl)c1[C@@H]1Cc2ncc(C3CCCC3)n2C1 [Example 90]
unit-symbol: µM
IC50: 0.00708
//
molecule: CC(C)N1CC[C@@H](c2nnc3n2C[C@H](c2c(O)ccc(Cl)c2Cl)C3)C1 [Example 80]
unit-symbol: µM
IC50: 0.00214
//
molecule: CC1(c2nnc3n2C[C@H](c2c(O)ccc(Cl)c2Cl)C3)CCOC1 (single isomer, unassigned) [Example 64]
unit-symbol: µM
IC50: 0.0428
//
molecule: CCc1cnc2n1C[C@@H](c1c(O)ccc(Cl)c1Cl)C2 [Example 93]
unit-symbol: µM
IC50: 0.00311
//
molecule: Oc1ccc(Cl)c(Cl)c1[C@@H]1Cc2nnc([C@@H]3CCN(C4CCOCC4)C3)n2C1 [Example 83]
unit-symbol: µM
IC50: 0.00399
//
molecule: Cn1ccc(-c2nnc3n2C[C@H](c2c(O)ccc(Cl)c2Cl)C3)cc1=O [Example 39]
unit-symbol: µM
IC50: 0.0521
//
molecule: CC(C)(C)n1cc(-c2cnc3n2CC(c2c(O)ccc(Cl)c2Cl)C3)cn1 (centres unmarked) [Example 98]
unit-symbol: µM
IC50: 0.0255
//
molecule: C[C@]1(c2nnc3n2C[C@H](c2c(O)ccc(Cl)c2Cl)C3)CCOC1 [Example 65]
unit-symbol: µM
IC50: 0.0517
//
molecule: Oc1ccc(Cl)c(Cl)c1[C@@H]1Cc2nnc([C@]34COCC3C4)n2C1 (some centres unmarked) [Example 73]
unit-symbol: µM
IC50: 0.0247
